- target desc: BTK (Homo sapiens)
- Construct: BTK Degradative Activity of Exemplary Compounds of the Present Disclosure in a RAMOS Cell Line; host or cells: RAMOS
- Sequence (Q06187 whole entry): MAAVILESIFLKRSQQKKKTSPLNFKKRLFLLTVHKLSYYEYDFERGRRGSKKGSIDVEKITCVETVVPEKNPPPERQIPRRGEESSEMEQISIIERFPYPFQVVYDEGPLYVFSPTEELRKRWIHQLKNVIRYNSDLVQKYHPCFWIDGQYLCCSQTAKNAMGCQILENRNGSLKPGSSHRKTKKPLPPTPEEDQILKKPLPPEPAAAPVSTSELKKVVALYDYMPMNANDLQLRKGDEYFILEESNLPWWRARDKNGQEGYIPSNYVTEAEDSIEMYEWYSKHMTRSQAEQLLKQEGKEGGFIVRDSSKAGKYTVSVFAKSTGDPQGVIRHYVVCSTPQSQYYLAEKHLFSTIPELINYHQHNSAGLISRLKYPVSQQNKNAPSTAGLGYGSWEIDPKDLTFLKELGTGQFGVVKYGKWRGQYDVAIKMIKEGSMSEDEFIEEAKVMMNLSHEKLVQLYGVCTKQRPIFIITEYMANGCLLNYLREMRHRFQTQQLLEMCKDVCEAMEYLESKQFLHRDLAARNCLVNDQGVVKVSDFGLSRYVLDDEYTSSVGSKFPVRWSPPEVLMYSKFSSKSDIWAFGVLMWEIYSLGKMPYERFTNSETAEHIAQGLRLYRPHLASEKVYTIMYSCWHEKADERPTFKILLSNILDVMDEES
- measurement notes: BTK degradative activity in a RAMOS cell line (Western blot)
- Format: cell-based
- conditions used: 6 hours after administration, read-out: RAMOS BTK Degradation DC50
quantity: DC50

Some entries whose results are on file:
COc1ccc(F)cc1C(=O)NCc1ccc(-c2nn(-c3ccc(N4CCC(CN5CCN(c6ccc7c(c6)C(=O)N(C6CCC(=O)NC6=O)C7=O)CC5)CC4)c(F)c3)c3ncnc(N)c23)cc1 (centres unmarked)    10 to 100 nM
COc1ccc(F)cc1C(=O)NCc1ccc(-c2nn(-c3ccc(N4CCC(CN5CCN(c6ccc7c(c6)CN([C@H]6CCC(=O)NC6=O)C7=O)CC5)C4)nc3)c3ncnc(N)c23)cc1 (some centres unmarked)    < 10 nM
COc1ccc(F)cc1C(=O)NCc1ccc(-c2nn(-c3ccc(N4CC[C@H](CN5CCN(c6ccc7c(c6)CN([C@H]6CCC(=O)NC6=O)C7=O)CC5)C4)nc3)c3ncnc(N)c23)cc1    < 10 nM
O=C1CCC(N2C(=O)c3ccc(N4CCN(CCCCCN5CCC[C@@H](Nc6ncnc7[nH]cc(C(=O)c8ccc(Oc9ccccc9)cc8Cl)c67)C5)CC4)cc3C2=O)C(=O)N1 (some centres unmarked)    ≥ 100 nM

// switching to the query compound
Form: compound = O=C1CCC(N2C(=O)c3ccc(N4CCN(CCCCC(=O)N5CCC(Nc6ncnc7[nH]cc(C(=O)c8ccc(Oc9ccccc9)cc8Cl)c67)CC5)CC4)cc3C2=O)C(=O)N1 (centres unmarked) ; DC50 = 10 to 100 nM
